Target: human factor XIa (Homo sapiens)
Sequence (P03951 388-625 limits assumed): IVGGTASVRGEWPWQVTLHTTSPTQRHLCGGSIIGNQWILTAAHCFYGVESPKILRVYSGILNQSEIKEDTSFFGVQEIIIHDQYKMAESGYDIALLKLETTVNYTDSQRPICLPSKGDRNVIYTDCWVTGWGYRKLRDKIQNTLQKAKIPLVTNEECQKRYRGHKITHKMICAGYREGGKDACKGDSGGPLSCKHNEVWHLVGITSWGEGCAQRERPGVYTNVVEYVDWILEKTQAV
Sequence (P03951 19-387 partner limits assumed): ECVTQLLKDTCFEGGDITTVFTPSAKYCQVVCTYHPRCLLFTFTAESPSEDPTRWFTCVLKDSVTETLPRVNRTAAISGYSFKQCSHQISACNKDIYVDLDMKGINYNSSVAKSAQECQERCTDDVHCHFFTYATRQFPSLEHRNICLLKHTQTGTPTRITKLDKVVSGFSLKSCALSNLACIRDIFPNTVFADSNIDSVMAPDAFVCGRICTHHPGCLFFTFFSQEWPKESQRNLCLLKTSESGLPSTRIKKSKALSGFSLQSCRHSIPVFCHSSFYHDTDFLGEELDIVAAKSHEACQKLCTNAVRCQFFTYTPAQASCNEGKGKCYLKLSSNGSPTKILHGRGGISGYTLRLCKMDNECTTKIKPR
Where a name gives a salt, the structure may show the parent alone.
MEASUREMENT_NAME: IC50 (nM)

{"MOLECULE": "Cc1cc(C(=O)NC2CCC(N(C)C)CC2)ccc1-c1cccc(C[C@H](NC(=O)[C@H]2CC[C@H](CN)CC2)C(=O)Nc2ccc(-c3nnn[nH]3)c(F)c2)c1 (stereo partly drawn) [Example 64, hydrochloride]", "IC50 (nM)": 5.2}
{"MOLECULE": "NC[C@H]1CC[C@H](C(=O)N[C@@H](Cc2cccc(-c3cnc(N4CCOCC4)nc3)c2)C(=O)Nc2ccc(-c3n[nH]c(C(F)(F)C(F)(F)C(=O)O)n3)cc2)CC1 [Example 96, hydrochloride]", "IC50 (nM)": 3.3}
{"MOLECULE": "NC[C@H]1CC[C@H](C(=O)N[C@@H](Cc2cccc(-c3cnc(N4CCNCC4)nc3)c2)C(=O)Nc2ccc3[nH]c(=O)[nH]c3c2)CC1 [Example 67, hydrochloride]", "IC50 (nM)": 37}
{"MOLECULE": "Cc1ccc(C[C@H](NC(=O)[C@H]2CC[C@H](CN)CC2)C(=O)Nc2ccc(-c3nnn[nH]3)cc2)cc1-c1ccc(C(=O)NC2CCNCC2)cc1 [Example 49, hydrochloride]", "IC50 (nM)": 21}
{"MOLECULE": "Cc1nc(N)ccc1-c1cccc(C[C@H](NC(=O)[C@H]2CC[C@H](CN)CC2)C(=O)Nc2ccc(-c3nnn[nH]3)cc2)c1 [Example 66, hydrochloride]", "IC50 (nM)": 3.3}

1: NC[C@H]1CC[C@H](C(=O)N[C@@H](Cc2cccc(-c3ccccc3C(F)(F)F)c2)C(=O)Nc2ccc(-c3nnn[nH]3)cc2)CC1 [Example 84, hydrochloride]
2: CN(C)CCCOc1ccc(-c2cccc(C[C@H](NC(=O)[C@H]3CC[C@H](CN)CC3)C(=O)Nc3ccc4[nH]c(=O)[nH]c4c3)c2)cn1 [Example 100, hydrochloride]
3: COc1ccc(C[C@H](NC(=O)[C@H]2CC[C@H](CN)CC2)C(=O)Nc2ccc(-c3nn[nH]n3)cc2)cc1-c1ccc(C(=O)N[C@@H]2CCNC2)cc1C [Example 57, hydrochloride]
4: Cc1ccc(C(=O)NC2C3CNCC32)cc1-c1cccc(C[C@H](NC(=O)C2CCC(CN)CC2)C(=O)Nc2ccc(-c3nnn[nH]3)cc2)c1 (stereo partly drawn) [Example 16, hydrochloride]
5: NC[C@H]1CC[C@H](C(=O)N[C@@H](Cc2cccc(-c3cnc(N4CCOCC4)nc3)c2)C(=O)Nc2ccc(-c3n[nH]c(=O)[nH]3)cc2)CC1 [Example 88, hydrochloride]
Kindly order the items shown according to IC50, from the highest value down. Please write the labels in the order that was asked for.
2, 5, 3, 4, 1

P: NC[C@H]1CC[C@H](C(=O)N[C@@H](Cc2cccc(-c3cnc(N4CCOCC4)nc3)c2)C(=O)Nc2ccc(-c3nnc(Cl)[nH]3)cc2)CC1 [Example 92, hydrochloride]
Q: CN1CCN(c2cc(-c3cccc(C[C@H](NC(=O)[C@H]4CC[C@H](CN)CC4)C(=O)Nc4ccc5[nH]c(=O)[nH]c5c4)c3)ccn2)CC1 [Example 76, hydrochloride]
R: CN1CCN(c2ccc(-c3cccc(C[C@H](NC(=O)[C@H]4CC[C@H](CN)CC4)C(=O)Nc4ccc(-c5nnn[nH]5)cc4)c3)cn2)CC1 [Example 77, hydrochloride]
S: NC[C@H]1CC[C@H](C(=O)N[C@@H](Cc2cccc(-c3ccnc(N4CCOCC4)c3)c2)C(=O)Nc2ccc(-c3nn[nH]n3)cc2)CC1 [Example 85, hydrochloride]
// ascending sort on recorded IC50 Please write the labels in the order that was asked for.
S, P, R, Q

A: CN(C)c1ncc(-c2cccc(C[C@H](NC(=O)[C@H]3CC[C@H](CN)CC3)C(=O)Nc3ccc(-c4nnn[nH]4)cc3)c2)cn1 [Example 70, hydrochloride]
B: Cc1nc(N)ncc1-c1cccc(C[C@H](NC(=O)[C@H]2CC[C@H](CN)CC2)C(=O)Nc2ccc(-c3nnn[nH]3)cc2)c1 [Example 95, hydrochloride]
For A and B , which recorded IC50 is lower? Label of pick, please.
A
(A: 2.9 nM, B: 5.4 nM)

1: Cc1cc(N2CCOCC2)ncc1-c1cccc(C[C@H](NC(=O)[C@H]2CC[C@H](CN)CC2)C(=O)Nc2ccc(-c3nnc(Cl)[nH]3)cc2)c1 [Example 102, hydrochloride]
2: CC(=O)Nc1ncc(-c2cccc(C[C@H](NC(=O)[C@H]3CC[C@H](CN)CC3)C(=O)Nc3ccc(-c4nnn[nH]4)cc3)c2)c(C)n1 [Example 94, hydrochloride]
From the recorded data, which exceeds the other in IC50: 1 or 2 ? Label of pick, please.
2
